Reference source for all entries: PubChem BioAssay (NCI)

Method Notes: NCI Yeast Anticancer Drug Screen. Data for the bub3 strain (AID 167)
Run Conditions: S. cerevisiae bub3 mutant strain, at 50.0 µM, hits give high values
About 79,000 compounds went through this panel and 15% of them were active in at least one assay; those are over-represented in the sample as a whole. The source made the active and inactive calls. Rule as the data show it: active = growth inhibition above about 70%; inactive = the rest.
Value Type: growth inhibition

Compound	Value
c1ccc2c(c1)[As]=c1ccccc1=[As]2 (stereo not drawn)	90.2% (active)
CCC[CH2][Sn]1([CH2]CCC)[O]C(=O)c2cc(C)ccc2[O]1	90.6% (active)
CCCCCCNC(=O)CI	59.2% (inactive)
CCOC(=O)N(C(=O)c1ccc([As]=O)cc1)C(=O)c1ccc([As]=O)cc1 (stereo not drawn)	89.3% (active)
NCC(O)c1cccc(O)c1 (stereo not drawn)	75.2% (active)

Field: growth inhibition. Fill in for each record below.
1. C(=C/P(c1ccccc1)c1ccccc1)/P(c1ccccc1)c1ccccc1.C(=CP(c1ccccc1)c1ccccc1)P(c1ccccc1)c1ccccc1.[Pt]
2. CN(/N=C/c1ccc(Cl)cc1)P(=O)(N1CC1)N1CC1
3. CC1CCC2(NC1)OC1CC3C4CCC5CC(OC6OC(CO)C(OC7OC(CO)C(O)C(OC8OCC(O)C(O)C8O)C7OC7OC(CO)C(O)C(O)C7O)C(O)C6O)CCC5(C)C4CCC3(C)C1C2C (stereo not drawn)

86.8% (active)
-0.25% (inactive)
11.1% (inactive)
